// data source = patent US20240294638A1

Target: T1, recombinant human NKG2A/CD94 heterodimer (extracellular domains) (human, UniProt Q13241 32-179)
T1 construct: extracellular domain; ECDs co-expressed in Expi293, purified by Ni-NTA and anti-Flag; also called HuNKG2A/huCD94; NKG2A/CD94 ECDs
T1 sequence (chain, as listed by the source, chain 1 of 2): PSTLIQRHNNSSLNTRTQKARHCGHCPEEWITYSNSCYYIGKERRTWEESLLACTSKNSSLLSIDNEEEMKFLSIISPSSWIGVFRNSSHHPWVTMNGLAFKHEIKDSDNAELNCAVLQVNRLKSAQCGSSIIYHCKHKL
T1 sequence (Q13241 32-179, chain 2 of 2): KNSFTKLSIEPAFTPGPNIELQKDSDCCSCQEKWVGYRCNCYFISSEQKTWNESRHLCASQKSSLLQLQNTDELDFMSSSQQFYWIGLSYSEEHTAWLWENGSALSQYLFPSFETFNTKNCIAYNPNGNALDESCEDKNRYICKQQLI
Test: SPR (IBIS MX96), mAb captured on anti-human IgG Fc, ECD heterodimer injected, 1:1 fit
Reported kon values follow for various binders
Please respond with the number in M⁻¹ s⁻¹ and leave the unit unwritten.

I have this binder here, antibody 23566 (antibody, human IgG1, kappa, L234A L235A, V domains shown, Fully human IgG1-LALA (L234A/L235A), kappa; also called mAb 23566) VH: EVQLLESGGDLVQPGGSLRLSCAASGFTFDNYAMHWVRQAPGKGLEWVSTITNSGGTTYYADSVKGRFTLSRDNSKNTLYLQMNSLRAEDTAVYYCAKAHYYARGYFDFWGQGTLVTVSS VL: DIQMTQTPSSVSASVGDRVTITCRASQGISSWLAWYQQKPGKAPKLLIYAASSLQSGVPSRFSGSGSGTDFTLTISSLQPEDFATYYCQQANSFPYTFGQGTKLEIKR , and I need its recorded kon.
420000

I have this binder here, antibody 23765 (antibody, human IgG1, kappa, L234A L235A, V domains shown, Fully human IgG1-LALA (L234A/L235A), kappa) VH: EVQLVESGGGLVKPGGSLRLSCAASGFTFSCCRMNWVRQAPGKGLEWVSSISSSSSYIYYADSVKGRFTISRDNAKNSLYLQMNSLRAEDTAVYYCARDGWNDVFDYWGQGTLVTVSS VL: EIVLTQSPATLSLSPGERATLSCRASQSVSSYLAWYQQKPGQAPRLLIYDASNRATGIPARFSGSGSGTDFTLTISSLEPEDFAVYYCQQRSNWPLTFGGGTKVEIKR , and I need its recorded kon.
88000

I have this binder here, antibody 23686 (antibody, human IgG1, kappa, L234A L235A, V domains shown, Fully human IgG1-LALA (L234A/L235A), kappa) VH: EVQLVESGGGLVKPGGSLRLSCAASGFTFSSYSMNWVRQAPGKGLEWVSSISSSSSYIYYADSVKGRFTISRDNAKNSLYLQMNSLRAEDTAVYYCARDEWGLLGFDSWGQGTLVTVSS VL: EIVLTQSPATLSLSPGERATLSCRASQSISNYLAWYQQKPGQAPRLLIYDASNRATGIPARFSGSGSGTDFTLTISSLEPEDFAVYYCQQRTDWPPWTFGQGTKVEIKR , and I need its recorded kon.
200000
